- Species: Bos taurus
- experiment: Displacement of ethidium from calf thymus DNA by fluorimetric method
Criterion: C50 strictly under 0.5 µM. Met: yes. Not met: no.

given_smiles	class_assignment
CC[n+]1cccc2cc(NC(=O)c3ccc(-c4ccc(-c5ccc(-c6ccc(C(=O)Nc7ccc8c(ccc[n+]8CC)c7)cc6)cc5)cc4)cc3)ccc21.Cc1ccc(S(=O)(=O)[O-])cc1.Cc1ccc(S(=O)(=O)[O-])cc1	yes
CC[n+]1cccc(NC(=O)c2ccc(NC(=O)c3ccc(C(=O)Nc4ccc(C(=O)Nc5ccc[n+](CC)c5)cc4)cc3)cc2)c1.Cc1ccc(S(=O)(=O)[O-])cc1.Cc1ccc(S(=O)(=O)[O-])cc1	yes
Cc1c[n+](C)c2ccccc2c1Nc1ccc(C(=O)Nc2ccc(Nc3cc[n+](C)cc3)cc2)cc1.[Br-].[Br-]	no
C[n+]1cccc(NC(=O)c2ccc(NC(=O)C34CCC(C(=O)Nc5ccc(C(=O)Nc6ccc[n+](C)c6)cc5)(CC3)CC4)cc2)c1.Cc1ccc(S(=O)(=O)[O-])cc1.Cc1ccc(S(=O)(=O)[O-])cc1	no
CC[n+]1ccc(Nc2ccc(NC(=O)c3ccc(Nc4cc[n+](CC)c5ccc(N)cc45)cc3)cc2)cc1.[Br-].[Br-]	no
CCC[n+]1cccc(NC(=O)c2ccc(NC(=O)c3ccc(C(=O)Nc4ccc(C(=O)Nc5ccc[n+](CCC)c5)c(N)c4)c(N)c3)cc2N)c1.Cc1ccc(S(=O)(=O)[O-])cc1.Cc1ccc(S(=O)(=O)[O-])cc1	yes
C[n+]1ccc(Nc2ccc(NC(=O)c3ccc(Nc4cc[n+](C)c5cc(N)ccc45)cc3)cc2)cc1.[Br-].[Br-]	no
C[n+]1ccc(Nc2ccc(NC(=O)c3ccc(C(=O)Nc4ccc(Nc5cc[n+](C)cc5)cc4)cc3)cc2)cc1.Cc1ccc(S(=O)(=O)[O-])cc1.Cc1ccc(S(=O)(=O)[O-])cc1	no
C[n+]1cccc(NC(=O)c2ccc(NC(=O)c3ccc(C(=O)Nc4ccc[n+](C)c4)cc3)cc2)c1.Cc1ccc(S(=O)(=O)[O-])cc1.Cc1ccc(S(=O)(=O)[O-])cc1	no
C[n+]1ccc(Nc2ccc(C(=O)Nc3ccc(Nc4cc[n+](C)c5ccc(N)cc45)cc3)c(N)c2)cc1.[Br-].[Br-]	no
C[n+]1ccc(-c2ccc(NC(=O)c3ccc(Nc4cc[n+](C)c5ccccc45)cc3)cc2)cc1.Cc1ccc(S(=O)(=O)[O-])cc1.Cc1ccc(S(=O)(=O)[O-])cc1	no
COc1cc(NC(=O)c2ccc(C(=O)Nc3ccc(C(=O)Nc4ccc[n+](C)c4)c(OC)c3)cc2)ccc1C(=O)Nc1ccc[n+](C)c1.Cc1ccc(S(=O)(=O)[O-])cc1.Cc1ccc(S(=O)(=O)[O-])cc1	yes
C/C(=N\NC(=N)N)c1ccc(NC(=O)Nc2ccc(Nc3c4ccccc4[n+](C)c4cc(N)ccc34)cc2)cc1.Cl.[Cl-]	yes
COc1cc(NC(=O)c2ccc(Nc3cc[n+](C)cc3)cc2)ccc1Nc1cc[n+](C)c2cc(N)ccc12.[Br-].[Br-]	no
COc1cc(C(=O)Nc2ccc(C(=O)Nc3ccc[n+](C)c3)cc2)ccc1C(=O)Nc1ccc(C(=O)Nc2ccc[n+](C)c2)cc1.Cc1ccc(S(=O)(=O)[O-])cc1.Cc1ccc(S(=O)(=O)[O-])cc1	no
Br.C/C(=N\NC(=N)N)c1ccc(NC(=O)Nc2ccc(Nc3cc[n+](C)c4ccc(N)cc34)cc2)cc1.[Br-]	yes
CCCC[n+]1cccc(NC(=O)c2ccc(NC(=O)c3ccc(C(=O)Nc4ccc(C(=O)Nc5ccc[n+](CCCC)c5)cc4)cc3)cc2)c1.Cc1ccc(S(=O)(=O)[O-])cc1.Cc1ccc(S(=O)(=O)[O-])cc1	yes
C[n+]1ccc(Nc2ccc(NC(=O)c3ccc(Nc4cc[n+](C)c5ccccc45)cc3N)cc2N)cc1.[I-].[I-]	no
COc1cccc2c(Nc3ccc(C(=O)Nc4ccc(Nc5cc[n+](C)cc5)cc4)cc3)cc[n+](C)c12.[Br-].[Br-]	no
C[n+]1cccc2cc(NC(=O)c3ccc(NC(=O)c4ccc(C(=O)Nc5ccc6c(ccc[n+]6C)c5)cc4)cc3)ccc21.Cc1ccc(S(=O)(=O)[O-])cc1.Cc1ccc(S(=O)(=O)[O-])cc1	yes
C[n+]1cccc(NC(=O)c2ccc(NC(=O)c3ccc(C(=O)Nc4ccc(C(=O)Nc5ccc[n+](C)c5)c(N)c4)cc3)cc2N)c1.Cc1ccc(S(=O)(=O)[O-])cc1.Cc1ccc(S(=O)(=O)[O-])cc1	yes
C[n+]1ccc(Nc2ccc(NC(=O)c3ccc(Nc4cc[n+](C)c5cc(Cl)ccc45)cc3)cc2)cc1.[Br-].[Br-]	no
C[n+]1ccc(Nc2ccc(NC(=O)c3ccc(Nc4cc[n+](C)c5ccc(N)cc45)cc3)cc2N)cc1.[I-].[I-]	no
